IC50 values recorded for calmodulin-dependent cGMP-phosphodiesterase (CaM-PDE) (Sus scrofa, UniProt A0A5G2RLV3)

{"sampleSmiles": "COc1cc2c(NCCCCCCCC(=O)O)ncnc2c(OC)c1OC", "IC50 [µM]": 3.62}
{"sampleSmiles": "COc1cc2c(NCCCCCC(=O)O)ncnc2c(OC)c1OC", "IC50 [µM]": 1.65}
{"sampleSmiles": "COc1cc2c(NCCCCC#N)ncnc2c(OC)c1OC", "IC50 [µM]": 6.4}
{"sampleSmiles": "COc1cc2c(N3CCC(C(=O)c4ccc(F)cc4)CC3)ncnc2c(OC)c1OC", "IC50 [µM]": 11.6}

* * *

testedOn: calmodulin-dependent cGMP-phosphodiesterase (CaM-PDE) (Sus scrofa)
Construct: prepared from swine aorta; from tissue; host or cells: swine aorta
protocolNotes: enzyme-inhibitory activity with calmodulin-dependent cGMP-phosphodiesterase (CaM-PDE) obtained from swine aorta
Assay type: biochemical
conditionSummary: 1 μM cGMP as substrate, 1 mM Ca++, calmodulin 250 U/ml, DMSO 4% or below
Where a name gives a salt, the structure may show the parent alone.
assayMetric: IC50 (nM)

{"compound": "COc1cc2c(N3CCOCC3)ncnc2c(OC)c1OC [Example 68, hydrochloride]", "testedOn": "calmodulin-dependent cGMP-phosphodiesterase (CaM-PDE) (Sus scrofa)", "measurementUnit": "nM", "experimentalResult": 4000}
{"compound": "COc1cc2c(N3CCC(C(=O)O)CC3)ncnc2c(OC)c1OC", "testedOn": "calmodulin-dependent cGMP-phosphodiesterase (CaM-PDE) (Sus scrofa)", "measurementUnit": "nM", "experimentalResult": 420}
{"compound": "COc1cc2c(N3CCC(C(O)c4ccc(F)cc4)CC3)ncnc2c(OC)c1OC (stereo not drawn)", "testedOn": "calmodulin-dependent cGMP-phosphodiesterase (CaM-PDE) (Sus scrofa)", "measurementUnit": "nM", "experimentalResult": 2800}
{"compound": "CCN(CC)c1ncnc2c(OC)cc(OC)cc12 [Example 43, hydrochloride]", "testedOn": "calmodulin-dependent cGMP-phosphodiesterase (CaM-PDE) (Sus scrofa)", "measurementUnit": "nM", "experimentalResult": 740}
{"compound": "CCCNc1ncnc2c(OC)c(OC)c(OC)cc12", "testedOn": "calmodulin-dependent cGMP-phosphodiesterase (CaM-PDE) (Sus scrofa)", "measurementUnit": "nM", "experimentalResult": 170}
{"compound": "COc1cc2c(NCCCO)ncnc2c(OC)c1OC", "testedOn": "calmodulin-dependent cGMP-phosphodiesterase (CaM-PDE) (Sus scrofa)", "measurementUnit": "nM", "experimentalResult": 1900}
{"compound": "CCOC(=O)CCNc1ncnc2c(OC)c(OC)c(OC)cc12", "testedOn": "calmodulin-dependent cGMP-phosphodiesterase (CaM-PDE) (Sus scrofa)", "measurementUnit": "nM", "experimentalResult": 4620}
{"compound": "CCN(CC)c1ncnc2c(OC)c(OC)c(OC)cc12 [Example 41, hydrochloride]", "testedOn": "calmodulin-dependent cGMP-phosphodiesterase (CaM-PDE) (Sus scrofa)", "measurementUnit": "nM", "experimentalResult": 300}
{"compound": "COc1cc2c(N3CCC(=O)CC3)ncnc2c(OC)c1OC", "testedOn": "calmodulin-dependent cGMP-phosphodiesterase (CaM-PDE) (Sus scrofa)", "measurementUnit": "nM", "experimentalResult": 1100}
